FYI, the data here is from PubChem BioAssay (NCI).

Test system: T-47D breast
measurement_protocol: NCI-60 one-dose screen, 48 h (100 = growth as untreated, 0 = no growth, -100 = all killed)
condition_info: 10 µM unless noted
This is part of a sample that, as a whole, favours compounds with a hit. Of some 83,000 tested, about 20% had one in any assay.
Cut-off 40% on growth, inclusive. At or above means yes; below means no.

Given the entry N#Cc1cnc2ccc(-c3cnc(N)nc3)cc2c1N1CCc2cc(F)c(Cl)cc21 , answer whether its growth meets or surpasses 40%.
no

Given the entry FC(F)(F)c1cc(Nc2cccc(Oc3ccc(NC4=NCCN4)nc3)c2)ccc1Cl , answer whether its growth meets or surpasses 40%.
no

Given the entry CCCn1cnc2c(c1=N)C(c1ccc(Cl)cc1)c1sc3c(CC)cccc3c1O2 (centres undefined) , answer whether its growth meets or surpasses 40%.
no

Given the entry COc1ccc2c(c1)c(CC(=O)[Se]CCC#N)c(C)n2C(=O)c1ccc(Cl)cc1 , answer whether its growth meets or surpasses 40%.
yes

Given the entry O=C1[C@H]2Cc3c([nH]c4ccccc34)[C@@H](c3ccc(Br)cc3)N2C(=O)CN1C1CCN(CC2CCCCC2)CC1 , answer whether its growth meets or surpasses 40%.
yes

Given the entry O=C(CSc1nnc(-c2ccc(Cl)cc2)n1-c1ccccc1)Nc1cccc(Cl)c1 , answer whether its growth meets or surpasses 40%.
yes

Given the entry CCCCCc1ccc(S(=O)(=O)Nc2cc(-c3csc(NC(=O)CN4CCN(C)CC4)n3)ccc2OC)cc1 , answer whether its growth meets or surpasses 40%.
no

Given the entry CC(=O)N1N=C(c2cccc(-n3cccc3)c2)CC1c1cccc(F)c1 (centres undefined) , answer whether its growth meets or surpasses 40%.
yes

Given the entry COc1ccc([C@H]2[C@H](O)C(=O)N2c2cc(OC)c(OC)c(OC)c2)cc1F , answer whether its growth meets or surpasses 40%.
yes
